# Tested on: Escherichia coli
# assay.protocol: Inhibition of Escherichia coli DdlB assessed as residual activity at 500 uM
measured.attribute: Activity (%)

[
  {
    "compound.smiles": "COC(=O)/N=N/C(=O)NCCCl",
    "target.or.system": "Escherichia coli",
    "measured.attribute": "Activity",
    "result.unit": "%",
    "numeric.result": 7
  },
  {
    "compound.smiles": "CCOC(=O)NNC(=O)Nc1ccc([N+](=O)[O-])cc1",
    "target.or.system": "Escherichia coli",
    "measured.attribute": "Activity",
    "result.unit": "%",
    "numeric.result": 1
  },
  {
    "compound.smiles": "CCOC(=O)NNC(=O)Nc1cccc(Cl)c1",
    "target.or.system": "Escherichia coli",
    "measured.attribute": "Activity",
    "result.unit": "%",
    "numeric.result": 0
  },
  {
    "compound.smiles": "COC(=O)NNC(=O)NCCCl",
    "target.or.system": "Escherichia coli",
    "measured.attribute": "Activity",
    "result.unit": "%",
    "numeric.result": 5
  },
  {
    "compound.smiles": "O=C(NCc1cccnc1)NNC(=O)Nc1ccccc1",
    "target.or.system": "Escherichia coli",
    "measured.attribute": "Activity",
    "result.unit": "%",
    "numeric.result": 0
  },
  {
    "compound.smiles": "CC(C)(C)OC(=O)/N=N/C(=O)NCCCl",
    "target.or.system": "Escherichia coli",
    "measured.attribute": "Activity",
    "result.unit": "%",
    "numeric.result": 7
  },
  {
    "compound.smiles": "O=C(NCc1cccnc1)NNC(=O)Nc1cccc(Cl)c1",
    "target.or.system": "Escherichia coli",
    "measured.attribute": "Activity",
    "result.unit": "%",
    "numeric.result": 3
  },
  {
    "compound.smiles": "COC(=O)NNC(=O)NC1CCCCC1",
    "target.or.system": "Escherichia coli",
    "measured.attribute": "Activity",
    "result.unit": "%",
    "numeric.result": 1
  },
  {
    "compound.smiles": "CN(C)CCNC(=O)NNC(=O)Nc1ccccc1",
    "target.or.system": "Escherichia coli",
    "measured.attribute": "Activity",
    "result.unit": "%",
    "numeric.result": 2
  },
  {
    "compound.smiles": "CCOC(=O)/N=N/C(=O)Nc1cccc(Cl)c1",
    "target.or.system": "Escherichia coli",
    "measured.attribute": "Activity",
    "result.unit": "%",
    "numeric.result": 33
  },
  {
    "compound.smiles": "CCOC(=O)/N=N/C(=O)Nc1ccccc1",
    "target.or.system": "Escherichia coli",
    "measured.attribute": "Activity",
    "result.unit": "%",
    "numeric.result": 1
  },
  {
    "compound.smiles": "CCOC(=O)NNC(=O)Nc1ccccc1",
    "target.or.system": "Escherichia coli",
    "measured.attribute": "Activity",
    "result.unit": "%",
    "numeric.result": 1
  },
  {
    "compound.smiles": "CCOC(=O)NNC(=O)Nc1ccc(F)cc1",
    "target.or.system": "Escherichia coli",
    "measured.attribute": "Activity",
    "result.unit": "%",
    "numeric.result": 0
  },
  {
    "compound.smiles": "CCOC(=O)/N=N/C(=O)Nc1ccc(F)cc1",
    "target.or.system": "Escherichia coli",
    "measured.attribute": "Activity",
    "result.unit": "%",
    "numeric.result": 37
  },
  {
    "compound.smiles": "CCOC(=O)/N=N/C(=O)Nc1ccc([N+](=O)[O-])cc1",
    "target.or.system": "Escherichia coli",
    "measured.attribute": "Activity",
    "result.unit": "%",
    "numeric.result": 40
  }
]
